- system tested: T1, huNav1.7α (human Nav1.7 alpha subunit, expressed without β subunits) (human, UniProt Q15858 1-1988)
- T1 construct: also called HEK293 human Nav1.7α; HEKa Nav1.7α
- protocol text: binding FACS, HEKa cells
For each of the binders below, state its Bmax.
Answer format: numeric, % implied, no suffix.

Lab book: Bmax of F010302309 (VHH, also called F0103387G05(L11V, A14P, D23A, H37Y, G40A, A41P, D58G, N73Q, N82bS, N83R, V89L, R105Q)) VHH: EVQLVESGGGVVQPGGSLRLSCAASGRILRIGYMRWYRQAPGKQREFVARITDDSATGYADSVKGRFTISRDQAKNTVYLQMNSLRPEDTALYYCEALVTASVRGGSIHSGTYWGQGTLVTVSS noted as 100

Lab book: Bmax of F010301645 (VHH, also called F0103387G05(L11V, A14P, G40A, N82bS, N83R, V89L, R105Q)) VHH: EVQLVESGGGVVQPGGSLRLSCDASGRILRIGYMRWHRQAAGKQREFVARITDDSATDYADSVKGRFTISRDNAKNTVYLQMNSLRPEDTALYYCEALVTASVRGGSIHSGTYWGQGTLVTVSS noted as 100

Lab book: Bmax of F010301648 (VHH, also called F0103387G05(L11V, A14P, N82bS, N83R, V89L, E93N, R105Q); E93N) VHH: EVQLVESGGGVVQPGGSLRLSCDASGRILRIGYMRWHRQGAGKQREFVARITDDSATDYADSVKGRFTISRDNAKNTVYLQMNSLRPEDTALYYCNALVTASVRGGSIHSGTYWGQGTLVTVSS noted as 25

Lab book: Bmax of F010301646 (VHH, also called F0103387G05(L11V, A14P, A41P, N82bS, N83R, V89L, R105Q)) VHH: EVQLVESGGGVVQPGGSLRLSCDASGRILRIGYMRWHRQGPGKQREFVARITDDSATDYADSVKGRFTISRDNAKNTVYLQMNSLRPEDTALYYCEALVTASVRGGSIHSGTYWGQGTLVTVSS noted as 100
